Tested on: soluble VEGF121 and VEGF165 isoforms
experiment: Inhibition of soluble VEGF production in human tumor cell lines (ELISA, EC50)
Type: cell-based
experimental-conditions: Prostate, LNCaP, hypoxic (1% oxygen), 48 hours
quantity-kind: EC50 (nM)

compound	assay-result
COc1ccc(C2c3[nH]c4ccc(Cl)cc4c3CCN2C(=O)Oc2ccc(Cl)cc2)cc1 (racemic)	15

* * *

Recorded EC50, one value per entry.
System: hypoxia-inducible endogenous VEGF expression
experiment: Hypoxia-inducible endogenous VEGF expression ELISA in HeLa cells, dose-response EC50 (Table 3)
Format: cell-based, human
experimental-conditions: Homo sapiens, HeLa, read-out: ELISA EC50 μM
quantity-kind: EC50

molecule	assayed-system	assay-result
COc1ccc(OC(=O)N2CCc3c([nH]c4ccc(Cl)cc34)C2c2ccc(OCC(=O)NCCN3CCOCC3)cc2)cc1 (stereo not shown)	hypoxia-inducible endogenous VEGF expression	0.008 to 0.04 µM
CN1CCN(CC(O)COc2ccc(C3c4[nH]c5ccc(Cl)cc5c4CCN3C(=O)Oc3ccc(F)cc3)cc2)CC1 (stereo not shown)	hypoxia-inducible endogenous VEGF expression	0.008 to 0.04 µM
O=C(Oc1ccc(Cl)cc1)N1CCc2c([nH]c3ccc(Cl)cc23)C1c1ccc(OCCCN2CC[C@@H](O)C2)cc1 (stereo partly shown)	hypoxia-inducible endogenous VEGF expression	0.04 to 0.2 µM
COCCN(CCOC)CC(O)COc1ccc(C2c3[nH]c4ccc(Cl)cc4c3CCN2C(=O)Oc2ccc(Cl)cc2)cc1 (stereo not shown)	hypoxia-inducible endogenous VEGF expression	< 0.008 µM
COc1cc(C2c3[nH]c4ccc(Cl)cc4c3CCN2C(=O)Oc2ccc(Cl)cc2)ccc1OCCCN1CCOCC1 (stereo not shown)	hypoxia-inducible endogenous VEGF expression	0.008 to 0.04 µM
CCN(CC)CCCOc1ccc(C2c3[nH]c4ccc(Cl)cc4c3CCN2C(=O)Oc2ccc(Cl)cc2)cc1 (stereo not shown)	hypoxia-inducible endogenous VEGF expression	0.008 to 0.04 µM
O=C(Oc1ccc(Cl)cc1)N1CCc2c([nH]c3ccc(Cl)cc23)C1c1ccc(OCCCCN2CCCCC2)cc1 (stereo not shown)	hypoxia-inducible endogenous VEGF expression	0.008 to 0.04 µM
COc1ccc(OC(=O)N2CCc3c([nH]c4ccc(Cl)cc34)C2c2ccc(OCC3CCCN(C)C3)cc2)cc1 (stereo not shown)	hypoxia-inducible endogenous VEGF expression	0.04 to 0.2 µM
O=C(Oc1ccc(Cl)cc1)N1CCc2c([nH]c3ccc(Cl)cc23)C1c1ccc(OCCCCNCCO)cc1 (stereo not shown)	hypoxia-inducible endogenous VEGF expression	0.008 to 0.04 µM
O=C(COc1ccc(C2c3[nH]c4ccc(Cl)cc4c3CCN2C(=O)Oc2ccc(F)cc2)cc1)N1CCN(CCO)CC1 (stereo not shown)	hypoxia-inducible endogenous VEGF expression	0.008 to 0.04 µM
O=C(Oc1ccc(Cl)cc1)N1CCc2c([nH]c3ccc(Cl)cc23)C1c1ccc(OCCCN2CCC(O)CC2)cc1 (stereo not shown)	hypoxia-inducible endogenous VEGF expression	< 0.008 µM
O=C(Oc1ccc(Cl)cc1)N1CCc2c([nH]c3ccc(Cl)cc23)C1c1ccc(OCCCCN2CCCC2)cc1 (stereo not shown)	hypoxia-inducible endogenous VEGF expression	0.008 to 0.04 µM
O=C(Oc1ccc(F)cc1)N1CCc2c([nH]c3ccc(Cl)cc23)C1c1cccc(OCCCN2CCOCC2)c1 (stereo not shown)	hypoxia-inducible endogenous VEGF expression	0.008 to 0.04 µM
CN1CCN(CCCCOc2ccc(C3c4[nH]c5ccc(Cl)cc5c4CCN3C(=O)Oc3ccc(F)cc3)cc2)CC1 (stereo not shown)	hypoxia-inducible endogenous VEGF expression	0.04 to 0.2 µM
CN1CCN(CCCOc2cccc(C3c4[nH]c5ccc(Cl)cc5c4CCN3C(=O)Oc3ccc(F)cc3)c2)CC1 (stereo not shown)	hypoxia-inducible endogenous VEGF expression	0.2 to 1 µM
O=C(Oc1ccc(Cl)cc1)N1CCc2c([nH]c3ccc(Cl)cc23)C1c1ccc(OCCCCN2CCOCC2)cc1 (stereo not shown)	hypoxia-inducible endogenous VEGF expression	0.008 to 0.04 µM
Cc1ccc(OC(=O)N2CCc3c([nH]c4ccc(Cl)cc34)C2c2ccc(OCCCN(C)C)cc2)cc1 (stereo not shown)	hypoxia-inducible endogenous VEGF expression	0.04 to 0.2 µM
COCCCNCCCCOc1ccc(C2c3[nH]c4ccc(Cl)cc4c3CCN2C(=O)Oc2ccc(F)cc2)cc1 (stereo not shown)	hypoxia-inducible endogenous VEGF expression	0.008 to 0.04 µM
CN1CCC(COc2ccc(C3c4[nH]c5ccc(Cl)cc5c4CCN3C(=O)Oc3ccc(Cl)cc3)cc2)CC1 (stereo not shown)	hypoxia-inducible endogenous VEGF expression	0.008 to 0.04 µM
CC(C)NCCCOc1ccc(C2c3[nH]c4ccc(Cl)cc4c3CCN2C(=O)Oc2ccc(Cl)cc2)cc1 (stereo not shown)	hypoxia-inducible endogenous VEGF expression	0.008 to 0.04 µM
O=C(Oc1ccc(Cl)cc1)N1CCc2c([nH]c3ccc(Cl)cc23)C1c1ccc(OCCCN2CCC(CO)C2)cc1 (stereo not shown)	hypoxia-inducible endogenous VEGF expression	0.008 to 0.04 µM
O=C(Oc1ccc(Cl)cc1)N1CCc2c([nH]c3ccc(Cl)cc23)[C@@H]1c1ccc(OCCC(O)CN2CCOCC2)cc1 (stereo partly shown)	hypoxia-inducible endogenous VEGF expression	< 0.008 µM
O=C(Oc1ccc(Cl)cc1)N1CCc2c([nH]c3ccc(Cl)cc23)C1c1ccc(OCCCCCCN2CCOCC2)cc1 (stereo not shown)	hypoxia-inducible endogenous VEGF expression	< 0.008 µM
CCN1CCN(C(=O)COc2ccc(C3c4[nH]c5ccc(Cl)cc5c4CCN3C(=O)Oc3ccc(F)cc3)cc2)CC1 (stereo not shown)	hypoxia-inducible endogenous VEGF expression	0.04 to 0.2 µM
O=C(Oc1ccc(Cl)cc1)N1CCc2c([nH]c3ccc(Cl)cc23)C1c1ccc(OCCN2CCOCC2)cc1 (stereo not shown)	hypoxia-inducible endogenous VEGF expression	> 1 µM
O=C(Oc1ccccc1)N1CCc2c([nH]c3ccc(Cl)cc23)C1c1ccc(OCCCN2CCOCC2)cc1 (stereo not shown)	hypoxia-inducible endogenous VEGF expression	0.008 to 0.04 µM
O=C(Oc1ccc(Cl)cc1)N1CCc2c([nH]c3ccc(Cl)cc23)C1c1ccc(OCCCCCCN2CCCCC2)cc1 (stereo not shown)	hypoxia-inducible endogenous VEGF expression	< 0.008 µM
O=C(Oc1ccc(Cl)cc1)N1CCc2c([nH]c3ccc(Cl)cc23)C1c1ccc(OCCCNCCO)cc1 (stereo not shown)	hypoxia-inducible endogenous VEGF expression	< 0.008 µM

* * *

experiment: Trough plasma concentrations of Compound #10 in HT1080 xenograft mice (HPLC-MS/MS)
Type: in vivo
experimental-conditions: athymic nude, mouse, oral, 1 mg/kg BID, 16 hours after the last dose on Day 18 (n=4), read-out: Steady state mean trough plasma concentration
quantity-kind: concentration at 16 h (ng/mL)

molecule	quantity-kind	unit-descriptor	assay-result
COc1ccc(C2c3[nH]c4ccc(Cl)cc4c3CCN2C(=O)Oc2ccc(Cl)cc2)cc1 (racemic)	concentration at 16 h	ng/mL	820

* * *

Test system: soluble VEGF121 and VEGF165 isoforms
experiment: VEGF inhibition EC50 by ELISA in the same human tumor cell lines (Table 25)
Assay type: cell-based
experimental-conditions: Homo sapiens; NCI H460 (Lung), 48 hours

compound	EC50, nM
COc1ccc(C2c3[nH]c4ccc(Cl)cc4c3CCN2C(=O)Oc2ccc(Cl)cc2)cc1 (racemic)	10

* * *

Tested on: soluble VEGF121 and VEGF165 isoforms
experiment: Inhibition of soluble VEGF production in human tumor cell lines (ELISA, EC50)
Assay type: cell-based
experimental-conditions: Lung, A549, 48 hours
pEC50: −log10 of the molar value.
quantity-kind: pEC50

molecule	quantity-kind	assay-result
COc1ccc(C2c3[nH]c4ccc(Cl)cc4c3CCN2C(=O)Oc2ccc(Cl)cc2)cc1 (racemic)	pEC50	7.30

* * *

System: hypoxia-inducible endogenous VEGF expression
experiment: Hypoxia-inducible endogenous VEGF expression ELISA in HeLa cells, dose-response EC50 (Table 3)
Assay type: cell-based, human
experimental-conditions: Homo sapiens; HeLa cells, hypoxic conditions (1% O2), VEGF ELISA of conditioned media; read-out: ELISA EC50

compound	EC50
CCC(CO)(CO)COc1ccc(C2c3[nH]c4ccc(Br)cc4c3CCN2C(=O)Oc2ccc(Cl)cc2)cc1 (stereo not shown)	< 8 nM
O=C(NCC(O)COc1ccc(C2c3[nH]c4ccc(Cl)cc4c3CCN2C(=O)Oc2ccc(Cl)cc2)cc1)c1cccnc1 (stereo not shown)	8 to 40 nM
CC(=O)OCC1OC(n2cc(COc3ccc([C@H]4c5[nH]c6ccc(Cl)cc6c5CCN4C(=O)Oc4ccc(Cl)cc4)cc3)nn2)C(OC(C)=O)C(OC(C)=O)C1OC(C)=O (stereo partly shown)	40 to 200 nM
Cc1ccc(OC(=O)N2CCc3c([nH]c4ccc(Cl)cc34)[C@@H]2c2ccc(OCCC(O)CNS(=O)(=O)C3CC3)cc2)cc1 (stereo partly shown)	< 8 nM
